Values compiled from patent US20200407445A1.

Biological target: T1, Human TIGIT-His (human, UniProt Q495A1 22-141, biotinylated in the ForteBio Fab assay)
T1 construct: bought (Creative Biomart); also called Biotinylated Human TIGIT HIS; TIGIT-His monomer; not shown: His tag
T1 sequence (looked up): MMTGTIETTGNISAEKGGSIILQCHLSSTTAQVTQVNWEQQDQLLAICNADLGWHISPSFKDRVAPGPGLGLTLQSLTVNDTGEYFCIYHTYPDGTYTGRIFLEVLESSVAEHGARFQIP
Test: ForteBio BLI, Fab KD, monovalent
pKd: −log10 of the molar value.
test readout: pKd

>>> measured("Fab of anti-TIGIT clone 29523 (Fab, V domains shown) VH: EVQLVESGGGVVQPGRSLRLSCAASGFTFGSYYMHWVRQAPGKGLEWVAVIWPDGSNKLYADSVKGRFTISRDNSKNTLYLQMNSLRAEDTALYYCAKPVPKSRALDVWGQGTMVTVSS VL: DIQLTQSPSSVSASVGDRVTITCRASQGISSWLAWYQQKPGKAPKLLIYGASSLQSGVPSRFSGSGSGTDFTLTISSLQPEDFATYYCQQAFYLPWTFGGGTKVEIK")
8.42
>>> measured("Fab of anti-TIGIT clone 31288 (Fab, V domains shown, Fab) VH: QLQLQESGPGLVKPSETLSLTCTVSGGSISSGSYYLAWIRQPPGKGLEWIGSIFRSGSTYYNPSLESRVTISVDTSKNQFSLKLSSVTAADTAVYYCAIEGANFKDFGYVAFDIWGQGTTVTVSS VL: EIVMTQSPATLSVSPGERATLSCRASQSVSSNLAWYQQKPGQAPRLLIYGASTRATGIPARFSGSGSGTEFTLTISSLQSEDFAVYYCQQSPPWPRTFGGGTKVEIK")
8.68
>>> measured("Fab of anti-TIGIT clone 26432 (Fab, V domains shown) VH: QVQLVQSGAEVKKPGSSVKVSCKASGGTFSSYAISWVRQAPGQGLEWMGGIIPIFGTANYAQKFQGRVTITADESTSTAYMELSSLRSEDTAVYYCAREAQSYRVPFDIWGQGTMVTVSS VL: EIVMTQSPATLSVSPGERATLSCRASQSVSSNLAWYQQKPGQAPRLLIYGASTRATGIPARFSGSGSGTEFTLTISSLQSEDFAVYYCQQYAIWPPFTFGGGTKVEIK")
7.88
>>> measured("Fab of anti-TIGIT clone 26493 (Fab, V domains shown) VH: EVQLVESGGGLVQPGRSLRLSCAASGFTFGDYAMHWVRQAPGKGLEWVSGITWNSGSIGYADSVKGRFTISRDNAKNSLYLQMNSLRAEDTALYYCAKPVPKSRGLDVWGQGTMVTVSS VL: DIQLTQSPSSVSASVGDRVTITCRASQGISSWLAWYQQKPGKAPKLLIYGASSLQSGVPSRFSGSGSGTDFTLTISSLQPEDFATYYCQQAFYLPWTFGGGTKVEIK")
7.39
>>> measured("Fab of anti-TIGIT clone 26518 (Fab, V domains shown) VH: EVQLVESGGGLVQPGGSLRLSCAASGFTFSSYGMSWVRQAPGKGLEWVANIKQDGSEKYYVDSVKGRFTISRDNAKNSLYLQMNSLRAEDTAVYYCARVSYYYDSSKLRWAEYFQHWGQGTLVTVSS VL: EIVLTQSPATLSLSPGERATLSCRASQSVSSYLAWYQQKPGQAPRLLIYDASKRATGIPARFSGSGSGTDFTLTISSLEPEDFAVYYCQQVHNFPLTFGGGTKVEIK")
8.91
